These entries and their values trace back to patent US20200157519A1.

- MEASURED_TARGET: human fibrinogen (human) (UniProt P02671)
- Sequence (P02671 20-629 limits assumed, chain 1 of 3): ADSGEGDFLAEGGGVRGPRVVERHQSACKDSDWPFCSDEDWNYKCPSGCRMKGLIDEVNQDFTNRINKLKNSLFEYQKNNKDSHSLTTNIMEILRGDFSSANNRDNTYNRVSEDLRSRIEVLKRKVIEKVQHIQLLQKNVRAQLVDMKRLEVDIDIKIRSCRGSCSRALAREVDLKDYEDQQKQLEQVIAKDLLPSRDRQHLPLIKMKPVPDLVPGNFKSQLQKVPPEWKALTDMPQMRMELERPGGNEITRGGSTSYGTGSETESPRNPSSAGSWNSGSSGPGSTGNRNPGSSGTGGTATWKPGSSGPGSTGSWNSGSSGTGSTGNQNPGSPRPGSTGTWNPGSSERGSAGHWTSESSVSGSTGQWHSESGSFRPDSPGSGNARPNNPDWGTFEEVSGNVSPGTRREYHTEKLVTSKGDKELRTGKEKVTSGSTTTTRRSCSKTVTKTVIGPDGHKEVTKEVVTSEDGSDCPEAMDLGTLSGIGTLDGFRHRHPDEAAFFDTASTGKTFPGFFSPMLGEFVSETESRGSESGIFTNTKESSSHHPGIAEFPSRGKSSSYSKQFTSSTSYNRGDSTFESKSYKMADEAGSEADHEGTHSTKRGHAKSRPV
- Sequence (P02675 31-491 limits assumed, chain 2 of 3, further chain): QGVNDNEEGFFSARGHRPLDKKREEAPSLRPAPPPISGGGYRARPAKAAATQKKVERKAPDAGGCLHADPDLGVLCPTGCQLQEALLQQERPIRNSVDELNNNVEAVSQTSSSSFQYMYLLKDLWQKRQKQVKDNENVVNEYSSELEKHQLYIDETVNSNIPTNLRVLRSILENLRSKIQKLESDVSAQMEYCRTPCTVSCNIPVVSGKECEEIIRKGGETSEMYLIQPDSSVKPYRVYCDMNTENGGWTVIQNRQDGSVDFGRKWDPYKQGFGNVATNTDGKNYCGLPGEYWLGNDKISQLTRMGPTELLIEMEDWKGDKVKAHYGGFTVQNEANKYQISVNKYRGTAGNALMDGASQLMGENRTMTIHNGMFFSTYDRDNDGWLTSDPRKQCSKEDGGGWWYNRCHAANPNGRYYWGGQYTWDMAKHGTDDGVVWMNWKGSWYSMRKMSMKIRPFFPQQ
- Sequence (P02679 other isoform, or with tags, fused parts or gaps limits assumed, chain 3 of 3, further chain): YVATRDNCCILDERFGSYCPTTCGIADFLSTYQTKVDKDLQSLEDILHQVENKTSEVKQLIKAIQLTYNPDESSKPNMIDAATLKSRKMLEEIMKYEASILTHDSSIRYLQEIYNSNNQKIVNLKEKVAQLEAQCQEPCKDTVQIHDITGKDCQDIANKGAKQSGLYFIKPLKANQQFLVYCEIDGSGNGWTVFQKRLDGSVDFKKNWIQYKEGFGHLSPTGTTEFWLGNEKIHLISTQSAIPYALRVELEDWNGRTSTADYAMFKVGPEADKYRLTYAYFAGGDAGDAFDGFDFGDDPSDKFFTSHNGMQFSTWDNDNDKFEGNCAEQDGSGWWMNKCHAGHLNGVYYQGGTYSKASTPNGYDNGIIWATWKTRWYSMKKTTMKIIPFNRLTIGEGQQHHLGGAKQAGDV
- TEST: single colony ELISA, secreted scFv on coated fibrinogen (negative control antigen), anti-E-tag-HRP
Readings of OD450 Fibrinogen for the listed binders

[
  {
    "BINDER": "phage-displayed 3D5 scFv (scFv) scFv: DIQMTQSPSSLSASVGDRVTITCRASQDVSNNVAWYQQKPGKAPKLLIFWSPWLYSGVPSRFSGSGSGTDFTLTISSLQPEDFATYYCQQGWDSPVTFGQGTKVEIKRGGGGSGGGGSGGGGSEVQLVESGGGLVQPGGSLRLSCAASGFTISDFGIHWVRQAPGKGLEWVASIWPSGGYTYYADSVKGRFTISADTSKNTAYLQMNSLRAEDTAVYYCARSWFYSWYDYWGQGTLVTVSS",
    "OD450 Fibrinogen (OD450)": 0.0022
  },
  {
    "BINDER": "scFv clone 3C2 (scFv, V domains shown) VH: EVQLVESGGGLVQPGGSLRLSCAASGFTIGNSSIHWVRQAPGKGLEWVAGIWPYWGSTYYADSVKGRFTISADTSKNTAYLQMNSLRAEDTAVYYCARFGINNDGFMDYWGQGTLVTVSS VL: DIQMTQSPSSLSASVGDRVTITCRASQDVSGWVAWYQQKPGKAPKLLISSTGSLYSGVPSRFSGSGSGTDFTLTISSLQPEDFATYYCQQYYDFPITFGQGTKVEIKR",
    "OD450 Fibrinogen (OD450)": 0.0117
  },
  {
    "BINDER": "scFv clone 8F2 (scFv, V domains shown) VH: EVQLVESGGGLVQPGGSLRLSCAASGFTINNYGIHWVRQAPGKGLEWVAGIWPYWGYTYYADSVKGRFTISADTSKNTAYLQMNSLRAEDTAVYYCARFDSNSYSSYSDGFMDYWGQGTLVTVSS VL: DIQMTQSPSSLSASVGDRVTITCRASQDVDNSVAWYQQKPGKAPKLLISSARSLYSGVPSRFSGSGSGTDFTLTISSLQPEDFATYYCQQYYNYPITFGQGTKVEIKR",
    "OD450 Fibrinogen (OD450)": 0.0366
  },
  {
    "BINDER": "scFv clone 7A3 (scFv, V domains shown) VH: EVQLVESGGGLVQPGGSLRLSCAASGFTINDWSIHWVRQAPGKGLEWVAYIGPFWGSTFYADSVKGRFTISADTSKNTAYLQMNSLRAEDTAVYYCARGYFGFDYWGQGTLVTVSS VL: DIQMTQSPSSLSASVGDRVTITCRASQDVGGWVAWYQQKPGKAPKLLISSPRSLYSGVPSRFSGSGSGTDFTLTISSLQPEDFATYYCQQYFSSPFTFGQGTKVEIKR",
    "OD450 Fibrinogen (OD450)": 0.0209
  }
]
